Data origin: ChEMBL document CHEMBL1122818

test system: Vaccinia virus; assay: In vitro antiviral activity was tested against, vaccinia virus (VV); format: functional; settings: Orthopoxvirus vaccinia; read-out: ED50 (the source's name)
Would you kindly list EC50 for each of these molecules?
Numbers only, in µM.

Known EC50 results, listed for orientation:
[[record]]
cpd_smiles = "Cc1cc2c(N)ncnc2n1[C@H]1C[C@H](O)[C@@H](CO)O1"
assayed_system = "Vaccinia virus"
readout_name = "EC50"
observed_value = 1000

[[record]]
cpd_smiles = "CSc1ncc2cc(C)n([C@H]3C[C@H](O)[C@@H](CO)O3)c2n1"
assayed_system = "Vaccinia virus"
readout_name = "EC50"
observed_value = 840


Reported EC50, molecule NC(=O)c1ncn([C@@H]2O[C@H](CO)[C@@H](O)[C@H]2O)n1 : ____
85
